Reference for the values: patent US20210347873A1

biological target: mouse BLyS protein (mouse, UniProt Q9WU72 69-309); experiment: cell-based or functional assay
Sequence (Q9WU72 69-309): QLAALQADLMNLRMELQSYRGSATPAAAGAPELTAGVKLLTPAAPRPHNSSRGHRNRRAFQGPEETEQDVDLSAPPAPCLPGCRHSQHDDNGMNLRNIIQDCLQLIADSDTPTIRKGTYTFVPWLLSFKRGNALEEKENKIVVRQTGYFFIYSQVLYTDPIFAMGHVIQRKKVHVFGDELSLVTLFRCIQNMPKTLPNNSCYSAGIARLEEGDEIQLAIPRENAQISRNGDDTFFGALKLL
EXPERIMENTAL_ENDPOINT: mouse B lymphocyte proliferation (OD450 nm), antibody 100 nM
Reply with just the number (in OD450 nm).

Entry 2-1G11 (antibody, V domains shown, From a human naive scFv phage library; also called human BLyS antibody 2-1G11) VH: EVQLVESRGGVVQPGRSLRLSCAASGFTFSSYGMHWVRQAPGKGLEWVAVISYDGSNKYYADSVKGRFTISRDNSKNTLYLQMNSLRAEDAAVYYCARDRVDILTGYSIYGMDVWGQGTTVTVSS VL: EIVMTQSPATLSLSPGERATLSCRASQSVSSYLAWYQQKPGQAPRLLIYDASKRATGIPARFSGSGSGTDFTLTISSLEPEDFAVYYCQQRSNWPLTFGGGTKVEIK — recorded mouse B lymphocyte proliferation (OD450 nm), antibody 100 nM = 2490
